Test system: ACHN renal
Protocol Description: NCI tumour cell line growth inhibition, 48 h
Reported TGI is given for each of the following molecules.
Lab book: enter the figure in µM, no units written.

>>> print(df.to_string())
                                   molecule  result_type  units  readout_number
0  Clc1cc(Cl)cc(N2N=C(c3cccc(Nc4ccncc4)c3)CC2c2ccc(Br)cc2)c1 (stereo not given)          TGI     µM            3.02
1  CCOC(=O)NC(=O)c1cn(CCCOC(=O)CCCCCCCCC(=O)OCCCn2cc(C(=O)NC(=O)OCC)c(=O)[nH]c2=O)c(=O)[nH]c1=O          TGI     µM            42.1
2  C=CC1(CBr)CCC(C(C)(C)Br)O1 (stereo not given)          TGI     µM            30.2

Turning now to a further record.
What value of TGI has been reported for the following molecule? COc1cc2cnc3c(c2cc1OC)Cc1cc2c(cc1-3)OCO2
19.4
